assay-procedure: HRP/luminol detection interference without ALR, dose response, artefact control for ALR inhibitor project, biochemical, luminescence, no ALR or DTT, cherry-pick (AID 540356)
measurement-conditions: HRP/H2O2 luminol luminescence counterscreen; series mostly up to 10 µM
Screen size: about 2,500 compounds; about 360 (14%) were called active.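 The calls were made as follows: active = signal-lowering compounds whose fitted half-maximal concentration AC50 is no higher than ten times their top tested concentration; inconclusive = flat curve with 30 to 70% inhibition, or poor fit; inactive = flat within 30%, signal increase, or AC50 above limit.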 These entries were drawn from the full list.
Outcome (select one): y for active, n for inactive

Query block: For this molecule, state the assay outcome: Brc1ccc(CN2CCN(c3ccccc3)CC2)o1
Result block: n

Query block: Note, next up: CCN(CCCNC(=O)CNC(=O)Cn1cnc2ccccc2c1=O)c1ccccc1
Result block: n

Query block: How about this molecule: Cc1ccc(-c2nc(Nc3cccc(C)c3)sc2CC(=O)O)cc1
Result block: n

Query block: Try this molecule too: c1ccc(-c2nnc(CN3CCN(c4ccccc4)CC3)o2)cc1
Result block: n

Query block: Quick one: Oc1cccc(Nc2c3ccccc3nc3ccccc23)c1
Result block: n

Query block: Would you mind doing O=C(O)C(c1ccccc1)N1C(=O)/C(=C\c2ccc(O)c(O)c2)SC1=S (stereo unspecified) as well?
Result block: y

Query block: Repeat for the following molecule: CSCc1ccc(C(=O)NC(C)c2ccc(-n3ccnc3)cc2)cc1 (stereo unspecified)
Result block: n

Query block: // query: O=C(NNc1nc2ccccc2s1)c1ccccc1F
Result block: y

Query block: Do the same for Cc1nc(C)c(/C(O)=C\c2nc3ccc([N+](=O)[O-])cc3oc2=O)o1 please
Result block: n

Query block: What would you report for Cc1cc(C)nc(NN2C(=O)/C(=C/c3ccc(O)cc3)SC2=S)n1 ?
Result block: n

Query block: // query: O=C(NNc1cccc(Cl)c1)c1cccnc1Cl
Result block: y
